Source of measurements: patent US20170022281A1

# System tested: T1, human PRLR (Biacore antigen) (human, UniProt P16471 25-234, limits assumed)
# T1 construct: The construct injected over captured antibody is not described (a soluble form is likely); also called huPRLR
# T1 sequence: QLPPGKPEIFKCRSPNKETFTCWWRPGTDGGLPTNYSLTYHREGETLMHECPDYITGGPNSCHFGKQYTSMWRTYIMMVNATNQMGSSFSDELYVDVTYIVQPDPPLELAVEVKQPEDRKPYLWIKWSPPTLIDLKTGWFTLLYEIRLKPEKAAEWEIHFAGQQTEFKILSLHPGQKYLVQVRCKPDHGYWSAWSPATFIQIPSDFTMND
# Assay: SPR simultaneous binding; PRLR held by surface mAb Ab19
# Protocol: Running buffer was HBS-EP+ (10 mM Hepes, pH7.4, 150 mM NaCl, 3 mM EDTA, 0.05% surfactant). Assay was performed at 12° C. using Biacore T200 and CM5 sensor chips with anti-human IgG (Pierce) amine-coupled in all 4 flow cells to ˜2000 RU. Separate test mAbs were captured in flowcells 2, 3 & 4 (flowcell 1 was reference, no test mAb). All 4 flowcells were then blocked by injection with isotype control mAb at 50 ug/ml. […]
Entries and their measured solution mAb binding, % of PRLR binding follow.
Assay readout: solution mAb binding, % of PRLR binding (%)

1) Ab49 (antibody, human IgG1, kappa, V domains shown, humanized from Ab8; G1; also called Ab3 HC.1a and Ab3 LC.1b) VH: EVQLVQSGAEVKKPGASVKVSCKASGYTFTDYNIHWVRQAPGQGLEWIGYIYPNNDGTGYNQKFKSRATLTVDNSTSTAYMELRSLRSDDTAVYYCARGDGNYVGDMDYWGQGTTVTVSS VL: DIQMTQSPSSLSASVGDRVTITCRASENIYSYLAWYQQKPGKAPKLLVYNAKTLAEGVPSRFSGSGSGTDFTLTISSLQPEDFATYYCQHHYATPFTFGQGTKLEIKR; -1
2) chAb8 (antibody, human IgG1, kappa, V domains shown, chimeric, murine variable and human G1/kappa constant regions) VH: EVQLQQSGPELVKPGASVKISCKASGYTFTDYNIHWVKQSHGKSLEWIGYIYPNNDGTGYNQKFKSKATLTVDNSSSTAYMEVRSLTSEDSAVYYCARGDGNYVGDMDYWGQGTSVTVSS VL: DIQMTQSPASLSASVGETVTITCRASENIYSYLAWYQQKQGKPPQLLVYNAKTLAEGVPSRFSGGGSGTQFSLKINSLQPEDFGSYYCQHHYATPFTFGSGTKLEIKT; -1
3) chAb5 (antibody, human IgG1, kappa, V domains shown, chimeric, murine variable and human G1/kappa constant regions) VH: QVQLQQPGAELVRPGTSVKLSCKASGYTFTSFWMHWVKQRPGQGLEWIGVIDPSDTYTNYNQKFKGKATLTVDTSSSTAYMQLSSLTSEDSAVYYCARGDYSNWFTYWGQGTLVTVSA VL: DVVMTQTPLSLPVSLGDQASISCRSSQRLVHSNGNTYLHWYLQKPGQSPKLLIYKVSNRFSGVPDRFSGSGSGTDFTLKISRVEAEDLGVYFCSQSTHVPWTFGGGTKLEIKT; 0
